Tested target: Escherichia coli DNA gyrase A/B tetramer (Escherichia coli, UniProt P0AES4+P0AES6)
Sequence (P0AES4 whole entry, one chain of several): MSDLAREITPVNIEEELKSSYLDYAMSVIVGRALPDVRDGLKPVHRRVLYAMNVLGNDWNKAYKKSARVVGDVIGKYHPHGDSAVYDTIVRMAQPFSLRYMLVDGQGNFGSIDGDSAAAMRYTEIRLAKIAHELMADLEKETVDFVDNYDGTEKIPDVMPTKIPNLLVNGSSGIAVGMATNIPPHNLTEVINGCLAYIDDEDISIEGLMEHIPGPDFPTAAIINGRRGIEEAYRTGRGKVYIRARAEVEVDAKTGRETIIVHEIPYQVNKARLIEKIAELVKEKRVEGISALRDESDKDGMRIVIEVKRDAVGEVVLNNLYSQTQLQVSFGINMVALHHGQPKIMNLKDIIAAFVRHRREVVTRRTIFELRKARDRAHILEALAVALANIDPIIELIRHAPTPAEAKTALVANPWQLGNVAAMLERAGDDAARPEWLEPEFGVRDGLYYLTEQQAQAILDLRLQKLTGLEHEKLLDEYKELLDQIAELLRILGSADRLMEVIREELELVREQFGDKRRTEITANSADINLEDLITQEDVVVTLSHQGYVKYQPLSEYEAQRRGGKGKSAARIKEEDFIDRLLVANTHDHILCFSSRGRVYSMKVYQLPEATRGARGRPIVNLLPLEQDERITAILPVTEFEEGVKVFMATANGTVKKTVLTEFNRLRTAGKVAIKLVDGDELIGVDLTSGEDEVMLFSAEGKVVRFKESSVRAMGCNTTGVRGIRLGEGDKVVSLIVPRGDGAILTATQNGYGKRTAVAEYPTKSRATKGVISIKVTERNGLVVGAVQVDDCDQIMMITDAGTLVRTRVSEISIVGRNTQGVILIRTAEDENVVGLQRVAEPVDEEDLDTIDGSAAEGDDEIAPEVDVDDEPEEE
Measurement description: DNA gyrase supercoiling activity fluorescence polarisation assay
Type: biochemical
pIC50: −log10 of the molar value.
Quick reference for pIC50 among some compounds
Measurement kind: pIC50

compound="C[C@@H]1CN2c3ncccc3CC3(C(=O)NC(=O)NC3=O)[C@H]2[C@H](C)O1 (relative stereo)" value_operator== meas_value=4.29
compound="C[C@@H]1CN2c3cnc(-c4cscn4)cc3CC3(C(=O)NC(=O)NC3=O)[C@H]2[C@H](C)O1 (relative stereo)" value_operator== meas_value=4.80
compound="C[C@@H]1CN2c3nc(F)c(I)cc3CC3(C(=O)NC(=O)NC3=O)[C@H]2C(=O)N1 (relative stereo)" value_operator== meas_value=4.96
compound="C[C@@H]1CN2c3ncc(C(=N)NO)cc3CC3(C(=O)NC(=O)NC3=O)[C@H]2[C@H](C)O1 (relative stereo)" value_operator== meas_value=5.05
compound="COc1nccnc1-c1cnc2c(c1)CC1(C(=O)NC(=O)NC1=O)[C@H]1[C@H](C)O[C@H](C)CN21 (relative stereo)" value_operator== meas_value=4.70
compound="C[C@@H]1CN2c3cc(Cl)ncc3CC3(C(=O)NC(=O)NC3=O)[C@H]2[C@H](C)O1 (relative stereo)" value_operator=< meas_value=4.70
compound="O=C1NC(=O)C2(Cc3c(F)cncc3N3CCCCC32)C(=O)N1 (stereo not shown)" value_operator=< meas_value=4.00

---

Let's look at some molecules and their measured log10 IC50.
Tested target: Escherichia coli DNA gyrase A/B tetramer (Escherichia coli, UniProt P0AES4+P0AES6)
Measurement description: DNA gyrase supercoiling activity fluorescence polarisation assay
Type: biochemical
Measurement kind: log10 IC50 (log10 of the value in µM)

molecule="C[C@@H]1CN2c3ncc(-c4ccoc4)cc3CC3(C(=O)NC(=O)NC3=O)[C@H]2[C@H](C)O1 (relative stereo) [Example 48]" tested_target="Escherichia coli DNA gyrase A/B tetramer (Escherichia coli, UniProt P0AES4+P0AES6)" meas_value=1.23
molecule="COc1ccncc1-c1ccc2c(n1)CC1(C(=O)NC(=O)NC1=O)[C@H]1[C@H](C)O[C@H](C)CN21 (relative stereo) [Example 71]" tested_target="Escherichia coli DNA gyrase A/B tetramer (Escherichia coli, UniProt P0AES4+P0AES6)" meas_value=1.20
molecule="C[C@@H]1CN2c3ncc(-c4ncco4)cc3CC3(C(=O)NC(=O)NC3=O)[C@H]2[C@H](C)O1 (relative stereo) [Example 97]" tested_target="Escherichia coli DNA gyrase A/B tetramer (Escherichia coli, UniProt P0AES4+P0AES6)" meas_value=1.64
molecule="COc1ccc(C#Cc2cc3c(nc2F)N2C[C@@H](C)O[C@@H](C)[C@@H]2C2(C3)C(=O)NC(=O)NC2=O)cc1 (relative stereo) [Example 23]" tested_target="Escherichia coli DNA gyrase A/B tetramer (Escherichia coli, UniProt P0AES4+P0AES6)" meas_value=0.78
molecule="C[C@@H]1CN2c3ncc(-c4ccc(F)cc4)cc3CC3(C(=O)NC(=O)NC3=O)[C@H]2[C@H](C)O1 (relative stereo) [Example 81]" tested_target="Escherichia coli DNA gyrase A/B tetramer (Escherichia coli, UniProt P0AES4+P0AES6)" meas_value=0.90
molecule="C[C@@H]1CN2c3ccc(-c4ccnn4C)nc3CC3(C(=O)NC(=O)NC3=O)[C@H]2[C@H](C)O1 (relative stereo) [Example 70]" tested_target="Escherichia coli DNA gyrase A/B tetramer (Escherichia coli, UniProt P0AES4+P0AES6)" meas_value=0.48
molecule="C[C@@H]1CN2c3cnc(-c4cccnc4)cc3CC3(C(=O)NC(=O)NC3=O)[C@H]2[C@H](C)O1 (racemic) [Example 61]" tested_target="Escherichia coli DNA gyrase A/B tetramer (Escherichia coli, UniProt P0AES4+P0AES6)" meas_value=1.26
molecule="C[C@@H]1CN2c3ncc(-c4ccncc4)cc3CC3(C(=O)NC(=O)NC3=O)[C@H]2[C@H](C)O1 (relative stereo) [Example 50]" tested_target="Escherichia coli DNA gyrase A/B tetramer (Escherichia coli, UniProt P0AES4+P0AES6)" meas_value=0.90
molecule="COc1cncc(-c2ccc3c(n2)CC2(C(=O)NC(=O)NC2=O)[C@H]2[C@H](C)O[C@H](C)CN32)n1 (relative stereo) [Example 104]" tested_target="Escherichia coli DNA gyrase A/B tetramer (Escherichia coli, UniProt P0AES4+P0AES6)" meas_value=1.34
molecule="C[C@@H]1CN2c3cnc(Br)cc3CC3(C(=O)NC(=O)NC3=O)[C@H]2[C@H](C)O1 (relative stereo) [Example 3]" tested_target="Escherichia coli DNA gyrase A/B tetramer (Escherichia coli, UniProt P0AES4+P0AES6)" meas_value=1.04
